recordedConditions: in water, 293.15 K

{"columns": ["smilesInput", "solubility (mole fraction)"],
 "data": [
  ["Cc1ncc([N+](=O)[O-])n1CCO", 0.000872]
]}

====

recordedConditions: in methanol, 302.55 K
quantityName: solubility (mole fraction)

{"columns": ["smilesInput", "experimentalValue"],
 "data": [
  ["Cc1ncc([N+](=O)[O-])n1CCO", 0.00925]
]}

====

recordedConditions: in water, 306.95 K

{"columns": ["smilesInput", "solubility (mole fraction)"],
 "data": [
  ["Cc1ncc([N+](=O)[O-])n1CCO", 0.00146]
]}

====

recordedConditions: in isopropanol, 297.55 K

{"columns": ["smilesInput", "solubility (mole fraction)"],
 "data": [
  ["Cc1ncc([N+](=O)[O-])n1CCO", 0.00462]
]}

====

recordedConditions: in chloroform, 293.15 K
quantityName: solubility (mole fraction)

{"columns": ["smilesInput", "quantityName", "experimentalValue"],
 "data": [
  ["Cc1ncc([N+](=O)[O-])n1CCO", "solubility (mole fraction)", 0.00128]
]}

====

recordedConditions: in ethyl acetate, 312.35 K
quantityName: solubility (mole fraction)

{"columns": ["smilesInput", "experimentalValue"],
 "data": [
  ["Cc1ncc([N+](=O)[O-])n1CCO", 0.00713]
]}

====

recordedConditions: in methanol, 297.55 K

{"columns": ["smilesInput", "solubility (mole fraction)"],
 "data": [
  ["Cc1ncc([N+](=O)[O-])n1CCO", 0.0076]
]}

====

recordedConditions: in methanol, 293.15 K
quantityName: solubility (mole fraction)

{"columns": ["smilesInput", "experimentalValue"],
 "data": [
  ["Cc1ncc([N+](=O)[O-])n1CCO", 0.00641]
]}

====

recordedConditions: in methanol, 312.35 K

{"columns": ["smilesInput", "solubility (mole fraction)"],
 "data": [
  ["Cc1ncc([N+](=O)[O-])n1CCO", 0.0138]
]}

====

recordedConditions: in chloroform, 317.85 K

{"columns": ["smilesInput", "solubility (mole fraction)"],
 "data": [
  ["Cc1ncc([N+](=O)[O-])n1CCO", 0.00418]
]}

====

recordedConditions: in ethanol, 297.55 K
quantityName: solubility (mole fraction)

{"columns": ["smilesInput", "experimentalValue"],
 "data": [
  ["Cc1ncc([N+](=O)[O-])n1CCO", 0.00596]
]}

====

recordedConditions: in ethyl acetate, 307.55 K
quantityName: solubility (mole fraction)

{"columns": ["smilesInput", "quantityName", "experimentalValue"],
 "data": [
  ["Cc1ncc([N+](=O)[O-])n1CCO", "solubility (mole fraction)", 0.00605]
]}

====

recordedConditions: in ethanol, 302.55 K
quantityName: solubility (mole fraction)

{"columns": ["smilesInput", "experimentalValue"],
 "data": [
  ["Cc1ncc([N+](=O)[O-])n1CCO", 0.00641]
]}

====

recordedConditions: in n-butanol, 312.35 K
quantityName: solubility (mole fraction)

{"columns": ["smilesInput", "quantityName", "experimentalValue"],
 "data": [
  ["Cc1ncc([N+](=O)[O-])n1CCO", "solubility (mole fraction)", 0.0111]
]}

====

recordedConditions: in isopropanol, 293.15 K
quantityName: solubility (mole fraction)

{"columns": ["smilesInput", "experimentalValue"],
 "data": [
  ["Cc1ncc([N+](=O)[O-])n1CCO", 0.00396]
]}

====

recordedConditions: in isopropanol, 317.85 K

{"columns": ["smilesInput", "solubility (mole fraction)"],
 "data": [
  ["Cc1ncc([N+](=O)[O-])n1CCO", 0.0102]
]}

====

recordedConditions: in ethyl acetate, 322.35 K

{"columns": ["smilesInput", "solubility (mole fraction)"],
 "data": [
  ["Cc1ncc([N+](=O)[O-])n1CCO", 0.0121]
]}

====

recordedConditions: in water, 322.95 K

{"columns": ["smilesInput", "solubility (mole fraction)"],
 "data": [
  ["Cc1ncc([N+](=O)[O-])n1CCO", 0.00265]
]}

====

recordedConditions: in chloroform, 312.35 K
quantityName: solubility (mole fraction)

{"columns": ["smilesInput", "experimentalValue"],
 "data": [
  ["Cc1ncc([N+](=O)[O-])n1CCO", 0.0036]
]}

====

recordedConditions: in ethyl acetate, 293.15 K

{"columns": ["smilesInput", "solubility (mole fraction)"],
 "data": [
  ["Cc1ncc([N+](=O)[O-])n1CCO", 0.00299]
]}

====

recordedConditions: in water, 308.65 K

{"columns": ["smilesInput", "solubility (mole fraction)"],
 "data": [
  ["Cc1ncc([N+](=O)[O-])n1CCO", 0.00152]
]}
